test system: Pancreatic cancer stem cells (CSC); assay: Cell viability assay, pancreatic cancer stem cells; format: cell-based; details: CSC, 72 h treatment; read-out: IC50
pIC50: −log10 of the molar value.
Measurement Type: pIC50

structure_smiles_string=O=C(O)c1nn(Cc2ccc(Cl)cc2Cl)c2ccccc12 reported_result=4.52
